- Assay Target: T1, cynomolgus (Macaca fascicularis) ST2L extracellular domain with C-terminal His6 tag (Macaca fascicularis (cynomolgus), UniProt Q01638 19-321 (human entry))
- T1 construct: also called cyno ST2L-ECD; cynoST2L-ECD
- T1 chain: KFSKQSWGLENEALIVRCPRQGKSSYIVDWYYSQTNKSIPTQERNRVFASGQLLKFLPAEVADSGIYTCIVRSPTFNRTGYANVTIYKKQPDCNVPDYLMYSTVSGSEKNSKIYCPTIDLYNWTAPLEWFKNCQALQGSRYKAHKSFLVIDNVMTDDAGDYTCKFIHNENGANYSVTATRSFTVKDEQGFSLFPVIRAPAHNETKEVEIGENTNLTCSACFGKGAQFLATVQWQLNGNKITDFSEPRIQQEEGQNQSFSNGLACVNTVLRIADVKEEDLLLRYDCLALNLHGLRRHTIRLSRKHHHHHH
- Protocol: SPR, mAb captured, ST2L-ECD in solution
Value Type: kon (M⁻¹ s⁻¹)
Field format: number, assumed M⁻¹ s⁻¹, no unit text.

Identify the reported kon for the following entry. ST2M48 (antibody, V domains shown, Phage-derived Fab converted to IgG) VH: EVQLVQSGAEVKKPGESLKISCKGSGYSFTSYWIGWVRQMPGKGLEWMGIIYPGDSYTRYSPSFQGQVTISADKSISTAYLQWSSLKASDTAMYYCARLSGRFDYWGQGTLVTVSS VL: EIVLTQSPATLSLSPGERATLSCRASQSVRDALAWYQQKPGQAPRLLIYFASNRATGIPARFSGSGSGTDFTLTISSLEPEDFAVYYCQQFNTWPITFGQGTKVEIK 1.03e+07
